# System: human PBMCs
# assay.method.text: Human PBMC cytokine response assay (IFN-γ and IFN-α in cell-free medium by ELISA), with or without cPLGA
# Assay type: cell-based
# condition.notes: Table 11; donor 28042
Strand notation (5' to 3'): a small letter for the sugar, then the base; units joined by * are phosphorothioate-linked, units joined directly phosphodiester-linked; [ ] holds rarer units or linkages, { } end groups; capitals alone tell only the bases. d = 2'-deoxy (DNA)
endpoint.label: IFN-γ

Worked set:
[[record]]
substance = "5′-GsGs-3′-C3-5′-TGC-3′-C3-5′-ATCGAT-3′-C3-5′-GCA-3′-C3-5′-GGsGsGsGsG-3′ (s = phosphorothioate linkages, otherwise linkages are phosphodiester) [Compound C-84]"
observed_value = "29 pg/mL"

[[record]]
substance = "(5′-TCGTCGA-3′-HEG)2-glycerol-HEG-5′-TCGTCGA-3′ (phosphodiester) [Compound C-93]"
observed_value = "8 pg/mL"

[[record]]
substance = "5′-TGACTGTGAACCTTAGAGATGA-3′ (SEQ ID NO: 3) (dT*dG*dA*dC*dT*dG*dT*dG*dA*dA*dC*dC*dT*dT*dA*dG*dA*dG*dA*dT*dG*dA) [Compound P-7, negative control, reference compound]"
observed_value = "34 pg/mL"

[[record]]
substance = "5′-TGACTGTGA-3′-HEG-5′-ACGTTCG-3′-HEG-5′-AGATGAT-3′ [Compound C-53]"
observed_value = "39 pg/mL"

[[record]]
substance = "(5′-TCGTCGA-3′-HEG)2-glycerol-HEG-5′-TCGTCGA-3′ [Compound C-94]"
observed_value = "443 pg/mL"


Let us examine a further case.
Return IFN-γ measured with human PBMCs given this substance: 5′-GsGs-3′-C3-5′-TCGTGC-3′-C3-5′-ATCGAT-3′-C3-5′-GCACGA-3′-C3-5′-GGsGsGsGsG-3′ (s = phosphorothioate linkages, otherwise linkages are phosphodiester) [Compound C-85] 17 pg/mL

---

# System: human PBMCs
# assay.method.text: Human PBMC cytokine response assay (IFN-γ and IFN-α in cell-free medium by ELISA), with or without cPLGA
# Assay type: cell-based
# condition.notes: donor 119; Table 14
endpoint.label: IFN-γ (pg/mL)
Write down the numeric answer in pg/mL and omit the unit.

The following substances have reported results that may help.
[[record]]
substance = "5′-TCGACTC-3′-HEG-5′-TCGAGCG-3′-HEG-5′-TTCTCTT-3′ [Compound C-63]"
subject_of_test = "human PBMCs"
observed_value = 80

[[record]]
substance = "5′-TCGAACG-3′-HEG-5′-TCGAACG-3′-HEG-5′-TCGAACG-3′ [Compound C-50]"
subject_of_test = "human PBMCs"
observed_value = 52

[[record]]
substance = "TMEA-(5′-TGACTGTGAACGTTCGAGATGA-3′)3 (SEQ ID NO: 139) (See Ex. 23) [Compound C-99]"
subject_of_test = "human PBMCs"
observed_value = 16

[[record]]
substance = "5′-TCGTCG-3′-HEG-5′-TCGA-3′ [Compound C-40]"
subject_of_test = "human PBMCs"
observed_value = 4

[[record]]
substance = "5′-TCGTCGT-3′-HEG-5′-TCGTCGT-3′-HEG-5′-TCGTCGT-3′ [Compound C-42]"
subject_of_test = "human PBMCs"
observed_value = 56

[[record]]
substance = "5′-TCGACGT-3′-HEG-5′-TCGACGT-3′-HEG-5′-TCGACGT-3′ [Compound C-51]"
subject_of_test = "human PBMCs"
observed_value = 52

[[record]]
substance = "5′-TCGTTTT-3′-HEG-5′-TCGTTTT-3′-HEG-5′-TCGTTTT-3′ [Compound C-41]"
subject_of_test = "human PBMCs"
observed_value = 32


Requested read-out: IFN-γ. Entry: (5′-TCGTCGA-3′-HEG)2-glycerol-HEG-5′-TCGTCGA-3′ [Compound C-94] 104

---

Parameter IFN-α mean: see the listing below.
# Test system: human PBMCs
# assay.method.text: Human PBMC cytokine response assay (IFN-γ and IFN-α in cell-free medium by ELISA), with or without cPLGA
# Format: cell-based
# condition.notes: Table 24; mean of donors 28234-28237
Quick note: give the figure in pg/mL, leave out the unit.

Below, each entry is followed by its recorded IFN-α mean result.
[[record]]
substance = "5′-TCGTCGA-3′-HEG-5′-TCGTCGA-3′-HEG-5′-TCGTCGA-3′ [Compound C-21]"
observed_value = 196

[[record]]
substance = "(5′-TCGTCGA-3′-HEG)2-glycerol-HEG-5′-AACGTTC-3′-HEG-5′-TCGA-3′ [Compound C-97]"
observed_value = 47


Field request: IFN-α mean | item: (5′-TCGTCGA-3′)2-glycerol-5′-TCGTCGA-3′ [Compound C-28] 16

Recorded IFN-α mean for (5′-TCGTCGA-3′-HEG)2-glycerol-HEG-5′-AACGTTC-3′ [Compound C-96] , please? 434

---

# Test system: human PBMCs
# assay.method.text: Human PBMC cytokine response assay (IFN-γ and IFN-α in cell-free medium by ELISA), with or without cPLGA
# Type: cell-based
# condition.notes: Example 59; 4 ug/ml; donor 177
Strand notation (5' to 3'): a small letter for the sugar, then the base; units joined by * are phosphorothioate-linked, units joined directly phosphodiester-linked; [ ] holds rarer units or linkages, { } end groups; capitals alone tell only the bases. d = 2'-deoxy (DNA)
Known IFN-α of a selection of substances
Please make sure the unit comes right after the number.

These solved cases illustrate the format of a correct answer.
[[record]]
substance = "5′-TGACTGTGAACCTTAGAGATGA-3′ (SEQ ID NO: 3) (dT*dG*dA*dC*dT*dG*dT*dG*dA*dA*dC*dC*dT*dT*dA*dG*dA*dG*dA*dT*dG*dA) [Compound P-7, negative control, reference compound]"
observed_value = "102 pg/mL"

[[record]]
substance = "(5′-TAGTCAT-3′-HEG)2-glycerol-HEG-5′-AACCTTC-3′ [Compound M-3, reference compound]"
observed_value = "102 pg/mL"


For the next question, use this substance.
Quick one: IFN-α of (5′-TCGACGT-3′-HEG)2-glycerol-HEG-5′-TCGACGT-3′ [Compound C-101] ? 3631 pg/mL

---

# Tested on: human PBMCs
# assay.method.text: Human PBMC cytokine response assay (IFN-γ and IFN-α in cell-free medium by ELISA), with or without cPLGA
# Type: cell-based
# condition.notes: donor 110; Table 14
Think of 60 pg/mL as a floor: if IFN-α stands on it or above, it is satisfied; beneath it, not satisfied.

// below: answered substances
[[record]]
substance = "5′-TCGTCGA-3′-HEG-5′-TCGTCGA-3′ [Compound C-39]"
subject_of_test = "human PBMCs"
qualitative_label = "satisfied"

[[record]]
substance = "5′-TCGTTTT-3′-HEG-5′-TCGTTTT-3′-HEG-5′-TCGTTTT-3′ [Compound C-41]"
subject_of_test = "human PBMCs"
qualitative_label = "not satisfied"

[[record]]
substance = "5′-CGTTCGA-3′-HEG-5′-CGTTCGA-3′-HEG-5′-CGTTCGA-3′ [Compound C-52]"
subject_of_test = "human PBMCs"
qualitative_label = "not satisfied"

[[record]]
substance = "5′-TCGTCGT-3′-HEG-5′-TCGTCGT-3′-HEG-5′-TCGTCGT-3′ [Compound C-42]"
subject_of_test = "human PBMCs"
qualitative_label = "satisfied"

[[record]]
substance = "5′-TTCGTTT-3′-HEG-5′-TTCGTTT-3′-HEG-5′-TTCGTTT-3′ [Compound C-46]"
subject_of_test = "human PBMCs"
qualitative_label = "not satisfied"


Item 5′-TCGACGT-3′-HEG-5′-TCGACGT-3′-HEG-5′-TCGACGT-3′ [Compound C-51] with IFN-α of 60 pg/mL or above? satisfied

IFN-α >= 60 pg/mL for 5′-TCGAACG-3′-HEG-5′-TCGAACG-3′-HEG-5′-TCGAACG-3′ [Compound C-50] ? satisfied

Dear colleague, could you confirm whether 5′-AGATGAT-3′-HEG-5′-TCGTCGA-3′-HEG-5′-ACGTTCG-3′ [Compound C-59] has IFN-α at or above 60 pg/mL? not satisfied

---

# System: human PBMCs
# assay.method.text: Human PBMC cytokine response assay (IFN-γ and IFN-α in cell-free medium by ELISA), with or without cPLGA
# Assay type: cell-based
# condition.notes: donor 110; Table 14
Strand notation (5' to 3'): a small letter for the sugar, then the base; units joined by * are phosphorothioate-linked, units joined directly phosphodiester-linked; [ ] holds rarer units or linkages, { } end groups; capitals alone tell only the bases. d = 2'-deoxy (DNA)
The reader will find reported IFN-α values listed item by item below.
Note: unit pg/mL is implicit; provide only the numeric part.

[[record]]
substance = "5′-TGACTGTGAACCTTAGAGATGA-3′ (SEQ ID NO: 3) (dT*dG*dA*dC*dT*dG*dT*dG*dA*dA*dC*dC*dT*dT*dA*dG*dA*dG*dA*dT*dG*dA) [Compound P-7, negative control, reference compound]"
unit_annotation = "pg/mL"
observed_value = 2


What value of IFN-α has been recorded for this entry: 5′-TCGAGAT-3′-HEG-5′-TCGAGAT-3′-HEG-5′-TCGAGAT-3′ [Compound C-45] 446

Bench note: what IFN-α did (5′-TCGTCGA-3′-HEG)2-glycerol-HEG-5′-TCGTCGA-3′ [Compound C-94] show? 1608
